- Test system: S. aureus ATCC25923
- procedure.text: Broth microdilution antimicrobial assay (MIC/MMC)
- Type: cell-based, Staphylococcus aureus
measured.endpoint: MMC/MIC
Answers are plain numbers.

COC(=O)c1cc(O)c(O)c(O)c1-c1c(C(=O)OC)cc(O)c(O)c1O [Compound 8] : 2

Please give MMC/MIC for each item listed below.
1. O=c1cc(-c2ccc(O)cc2)oc2c([C@@H]3O[C@H](CO)[C@@H](O)[C@H](O)[C@H]3O)c(O)cc(O)c12 [Compound 5, vitexin]
2. O=C(O)c1cn(C2CC2)c2cc(N3CCNCC3)c(F)cc2c1=O [Ciprofloxacin, reference compound]
3. O=c1oc2c(O)c(O)cc3c(=O)oc4c(O)c(O)cc1c4c23 [Compound 10, ellagic acid]
4. O=C(C=Cc1ccc(O)cc1)OCC1OC(Oc2c(-c3ccc(O)cc3)oc3cc(O)cc(O)c3c2=O)C(O)C(O)C1O (stereo not drawn) [Compound 6, trans-tiliroside]
5. COc1cc2c(=O)oc3c(OC)c(O)cc4c(=O)oc(c1O)c2c34 [Compound 7, 3,4′-di-O-methylellagic acid]

[reply]
1: 2; 2: 1; 3: 2; 4: 2; 5: 1

* * *

Please go through the items and note down their MMC/MIC.
- System: C. albicans ATCC10231
- procedure.text: Broth microdilution antimicrobial assay (MIC/MMC)
- Type: cell-based, Candida albicans
- Method: The microorganisms used in this study include four bacterial (Staphylococcus aureus ATCC25923, methicillin sensitive S. aureus MSSA1, methicillin resistant S. aureus MRSA3 and methicillin resistant S. aureus MRSA4) and three yeast strains (Candida albicans ATCC10231, Candida tropicalis PK233 and Cryptococcus neoformans H99). […] The antimicrobial activity was evaluated by determining the minimum inhibitory concentrations (MICs). MICs of extracts and compounds were determined by broth micro dilution. […]

Please give MMC/MIC for each item listed below.
1. O=c1oc2c(O)c(O)cc3c(=O)oc4c(O)c(O)cc1c4c23
2. C[C@@H]1[C@H](O)[C@@H](C)/C=C/C=C/CC/C=C/C=C/C=C/C=C/C(O[C@H]2O[C@H](C)[C@@H](O)[C@H](N)[C@@H]2O)CC2O[C@](O)(CC(O)C(O)CCC(O)CC(O)CC(O)CC(=O)O[C@H]1C)CC(O)C2C(=O)O (some centres unmarked) [nystatin, reference compound]
3. COc1cc2c(=O)oc3c(OC)c(O)cc4c(=O)oc(c1O)c2c34
4. O=c1cc(-c2ccc(O)cc2)oc2c([C@@H]3O[C@H](CO)[C@@H](O)[C@H](O)[C@H]3O)c(O)cc(O)c12
5. O=C(C=Cc1ccc(O)cc1)OCC1OC(Oc2c(-c3ccc(O)cc3)oc3cc(O)cc(O)c3c2=O)C(O)C(O)C1O (stereo not drawn) [Compound 6, trans-tiliroside]

[reply]
1. 1
2. 1
3. 2
4. 2
5. 1

* * *

Please go through the items and note down their MBC.
- Test system: S. aureus MRSA3
- procedure.text: Broth microdilution antimicrobial assay (MIC/MMC)
- Assay type: cell-based, Staphylococcus aureus
- protocol.conditions: Staphylococcus aureus, 24 h; S. aureus MRSA3; no growth after sub-culturing
One number for each entry, in µg/mL.

COC(=O)c1cc(O)c(O)c(O)c1-c1c(C(=O)OC)cc(O)c(O)c1O : 128

Please give MBC for each item listed below.
1. O=C(O)c1cn(C2CC2)c2cc(N3CCNCC3)c(F)cc2c1=O [Ciprofloxacin, reference compound]
2. O=c1oc2c(O)c(O)cc3c(=O)oc4c(O)c(O)cc1c4c23
3. O=C(C=Cc1ccc(O)cc1)OCC1OC(Oc2c(-c3ccc(O)cc3)oc3cc(O)cc(O)c3c2=O)C(O)C(O)C1O (stereo not drawn) [Compound 6, trans-tiliroside]
4. COc1cc2c(=O)oc3c(OC)c(O)cc4c(=O)oc(c1O)c2c34

[reply]
1. 16
2. 64
3. 128
4. 32
